target: PPARγ (Homo sapiens); construct: expressed in transfected cells; experiment: cell-based chimeric receptor transcription assay (PPAR ligand binding domain fused to GAL4 DNA binding domain, GAL4-regulated luciferase reporter); details: calculated EC50, PPARγ agonist assay, Table 2; read-out: EC50
Test Readout: pEC50
// pEC50: -log10(molar conc.)

## Input Could you tell me which pEC50 is on file for CC/C=C\C/C=C\C/C=C\C/C=C\C/C=C\C/C=C\CCCC1SC(=O)NC1=O (centres unmarked) [DHA-TZ] ?
## Output 5.01

====

Below, each entry is listed with its recorded EC50.
Biological target: PPARγ (Homo sapiens, UniProt P37231)
Construct: expressed in transfected cells
Sequence (P37231 238-503 limits assumed): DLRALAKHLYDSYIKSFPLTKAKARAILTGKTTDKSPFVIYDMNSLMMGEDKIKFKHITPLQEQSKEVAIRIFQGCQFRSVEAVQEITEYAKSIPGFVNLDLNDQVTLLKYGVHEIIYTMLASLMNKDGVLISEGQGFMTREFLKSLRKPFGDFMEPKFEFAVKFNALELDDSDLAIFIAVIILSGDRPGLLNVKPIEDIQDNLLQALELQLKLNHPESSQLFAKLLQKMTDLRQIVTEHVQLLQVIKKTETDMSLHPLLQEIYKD
Experiment: cell-based chimeric receptor transcription assay (PPAR ligand binding domain fused to GAL4 DNA binding domain, GAL4-regulated luciferase reporter)
Conditions: read-out: activation of PPARγ, potency (EC50)
Procedure: To determine if these compounds can activate PPARγ or the members of the PPAR family of nuclear receptors (PPARα and PPARδ), the ability of these compounds to activate PPAR receptors in a cell-based chimeric receptor transcription assay were tested. […] The transcriptional read-out is from a GAL4-regulated luciferase reporter. In this assay, compounds that activate the receptor cause an increase in luciferase activity measured in a luminometer. […]
The figure you give is taken to be in µM; do not add the unit.

| Molecule | Unit | EC50 |
| --- | --- | --- |
| CC/C=C\C/C=C\C/C=C\C/C=C\C/C=C\CCCCC1SC(=O)NC1=O (centres unmarked) | µM | 12 |

## Input Could you tell me which EC50 is on file for CC/C=C\C/C=C\C/C=C\C/C=C\C/C=C\C/C=C\CCCC1SC(=O)NC1=O (centres unmarked) ?
## Output 10
